Reference source for all entries: patent US20240287154A1

target_or_system: human MC3R (human, UniProt P41968 1-323)
Sequence (P41968 whole entry): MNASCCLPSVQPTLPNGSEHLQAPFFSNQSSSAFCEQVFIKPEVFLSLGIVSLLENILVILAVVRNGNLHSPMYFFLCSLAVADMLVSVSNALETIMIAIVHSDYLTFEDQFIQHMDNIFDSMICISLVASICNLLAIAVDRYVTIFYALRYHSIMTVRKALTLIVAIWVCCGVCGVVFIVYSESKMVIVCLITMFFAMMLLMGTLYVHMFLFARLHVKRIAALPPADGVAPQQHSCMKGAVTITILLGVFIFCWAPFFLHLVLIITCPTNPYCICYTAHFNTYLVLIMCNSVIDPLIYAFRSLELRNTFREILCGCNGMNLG
measurement_notes: cell-based or functional assay
Non-standard residues stand in square brackets, D forms with d. NMeK = CN[C@@H](CCCCN)C(=O)O; Nle = CCCC[C@H](N)C(=O)O; dAbu = CC[C@@H](N)C(=O)O
assay_endpoint: MC3R cAMP (EC50) (nM)
Give a bare numeral; the unit nM is implied.

State the recorded MC3R cAMP (EC50) for this entry: Ac-[Nle][dA]HFR[dW]DRAG-OH (SMILES CCCC[C@H](NC(C)=O)C(=O)N[C@H](C)C(=O)N[C@@H](Cc1c[nH]cn1)C(=O)N[C@@H](Cc1ccccc1)C(=O)N[C@@H](CCCNC(=N)N)C(=O)N[C@H](Cc1c[nH]c2ccccc12)C(=O)N[C@@H](CC(=O)O)C(=O)N[C@@H](CCCNC(=N)N)C(=O)N[C@@H](C)C(=O)NCC(=O)O) [CTX-1537] 25.5

Same again, this time with Ac-[Nle][dA][NMeK]FR[dW]DRFG-OH (SMILES CCCC[C@H](NC(C)=O)C(=O)N[C@H](C)C(=O)N(C)[C@@H](CCCCN)C(=O)N[C@@H](Cc1ccccc1)C(=O)N[C@@H](CCCNC(=N)N)C(=O)N[C@H](Cc1c[nH]c2ccccc12)C(=O)N[C@@H](CC(=O)O)C(=O)N[C@@H](CCCNC(=N)N)C(=O)N[C@@H](Cc1ccccc1)C(=O)NCC(=O)O) [CTX-1189] 3540

Try Ac-[Nle][dAbu]HFR[dW]DRFG-OH (SMILES CCCC[C@H](NC(C)=O)C(=O)N[C@H](CC)C(=O)N[C@@H](Cc1c[nH]cn1)C(=O)N[C@@H](Cc1ccccc1)C(=O)N[C@@H](CCCNC(=N)N)C(=O)N[C@H](Cc1c[nH]c2ccccc12)C(=O)N[C@@H](CC(=O)O)C(=O)N[C@@H](CCCNC(=N)N)C(=O)N[C@@H](Cc1ccccc1)C(=O)NCC(=O)O) [CTX-1144] next. 6.6
